Data credit: ChEMBL document CHEMBL3792323

Provide the recorded Cmax for the entries that follow.
procedureText: Cmax in fasted dog at 2.5 mg/kg, po
Type: ADME, organism-based, Canis lupus familiaris
Parameters: dose 2.5 mg/kg, route oral
experimentalSetup: in vivo
Numbers only, in ng/mL.

* O=C(O)COc1cccc2c1OCCN2CCN(C(=O)c1ccccn1)c1ccc(Cl)cc1 | 138

Alright, here's another compound for you.
Task: Item Cc1ccc(N(CCN2CCC(OCC(=O)O)CC2)C(=O)c2ccccc2)cc1 has what recorded Cmax?
Output: 1610

* * *

targetUnderTest: Thromboxane A2 receptor (Homo sapiens)
Sequence (P21731 whole entry): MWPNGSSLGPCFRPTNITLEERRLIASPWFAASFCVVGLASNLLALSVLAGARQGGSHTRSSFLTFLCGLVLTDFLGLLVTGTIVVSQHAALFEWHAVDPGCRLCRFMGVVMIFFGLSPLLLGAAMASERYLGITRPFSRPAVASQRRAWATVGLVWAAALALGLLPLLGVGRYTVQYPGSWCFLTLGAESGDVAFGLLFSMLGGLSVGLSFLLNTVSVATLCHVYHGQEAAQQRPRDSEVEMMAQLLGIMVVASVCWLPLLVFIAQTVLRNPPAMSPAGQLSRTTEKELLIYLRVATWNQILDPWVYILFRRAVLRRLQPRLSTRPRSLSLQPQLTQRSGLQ
reportedMetric: Ki

Task: Item Cc1ccc(N(CCN2CCC(OCC(=O)O)CC2)C(=O)c2ccccc2)cc1 has what recorded Ki?
Output: > 50 µM

* * *

targetUnderTest: Prostaglandin E2 receptor EP1 subtype (Homo sapiens, UniProt P34995)
Sequence (P34995 whole entry): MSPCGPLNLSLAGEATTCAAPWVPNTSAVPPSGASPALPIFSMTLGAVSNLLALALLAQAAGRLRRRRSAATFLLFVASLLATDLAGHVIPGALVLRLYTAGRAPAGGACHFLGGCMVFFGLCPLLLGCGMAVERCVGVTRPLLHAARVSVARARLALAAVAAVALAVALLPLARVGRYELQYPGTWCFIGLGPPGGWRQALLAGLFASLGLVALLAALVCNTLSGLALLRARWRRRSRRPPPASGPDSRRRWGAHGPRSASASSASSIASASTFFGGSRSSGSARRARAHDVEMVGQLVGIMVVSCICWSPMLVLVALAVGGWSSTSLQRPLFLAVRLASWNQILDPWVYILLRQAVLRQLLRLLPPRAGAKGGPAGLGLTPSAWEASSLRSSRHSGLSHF
pKi: −log10 of the molar value.
reportedMetric: pKi

Task: Item Cc1ccc(N(CCN2CCC(OCC(=O)O)CC2)C(=O)c2ccccc2)cc1 has what recorded pKi?
Output: < 4.30

* * *

Provide the recorded bioavailability for the entries that follow.
procedureText: Oral bioavailability in fasted dog at 2.5 mg/kg
Assay type: ADME, organism-based, Canis lupus familiaris
experimentalSetup: in vivo
One number for each entry, in %.

- O=C(O)COc1cccc2c1OCCN2CCN(C(=O)c1ccccn1)c1ccc(Cl)cc1: 13

Task: Item Cc1ccc(N(CCN2CCC(OCC(=O)O)CC2)C(=O)c2ccccc2)cc1 has what recorded bioavailability?
Output: 77
